tested on: Hsp90 in SKOV-3 cells; test: Hsp90 occupancy in SKOV-3 cells; type: cell-based, human; details: read-out: Hsp90 occupancy (EC50); SKOV-3, 6 h incubation
MEASURE NAME: EC50 (nM)
Response body: numeric value in nM, unit text excluded.

Sure, the documented EC50 for C=CCNc1c(O)cc2c(O)c1C[C@@H](C)C[C@H](OC)[C@H](O)[C@@H](C)/C=C(\C)[C@H](OC(N)=O)[C@@H](OC)/C=C\C=C(/C)C(=O)N2 [IPI-504] is 44

====

test system: Hsp90 in H1975 cells; assay: Hsp90 occupancy in H1975 cells; format: cell-based, human; settings: read-out: Hsp90 occupancy (EC50); H1975, 6 h incubation
MEASURE NAME: pEC50
Friendly reminder that pEC50 comes from taking -log10 of the concentration in mol/L.

The compound C=CCNc1c(O)cc2c(O)c1C[C@@H](C)C[C@H](OC)[C@H](O)[C@@H](C)/C=C(\C)[C@H](OC(N)=O)[C@@H](OC)/C=C\C=C(/C)C(=O)N2 [IPI-504] on Hsp90 in H1975 cells: pEC50 was 7.13
